Reference source: BindingDB's records for doi:10.7270/Q2M043TQ

Biological target: Regulator of G-protein signaling 8 (Homo sapiens, UniProt P57771)
Sequence (P57771 whole entry): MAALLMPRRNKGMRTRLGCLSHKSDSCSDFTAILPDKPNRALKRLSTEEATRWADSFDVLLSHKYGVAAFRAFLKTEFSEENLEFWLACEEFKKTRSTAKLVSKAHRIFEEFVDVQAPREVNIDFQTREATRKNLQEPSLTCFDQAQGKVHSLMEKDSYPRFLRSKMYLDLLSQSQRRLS
Test: RGS8-Galphao interaction modulators, SAR follow-up, biochemical, multiplex bead flow cytometry, SAR compounds (AID 2307)
Details: inactive by the depositor's call
readout.label: EC50 (µM)

{"columns": ["given.smiles", "unit.abbreviation", "recorded.number"],
 "data": [
  ["CCOc1ccccc1-c1c2cc(O)c(=O)cc-2oc2cc(O)c(O)cc12", "µM", 3.68]
]}
